substrate: F protein of hMPV A virus (human metapneumovirus subtype A); experiment: cell-based or functional assay
test-readout: PRNT IC50 (µg/mL)
The answer is to be given in µg/mL; state only the numeric part.

[
  {
    "binder": "M1C11 (antibody, V domains shown) VH: QVQLVQSGAEMKKPGSSVKVSCKTSGGSFSSYPVSWVRQAPGQGPEWMGGIIPLSGTTHYAQMFQGRVSITADDSTRTVFMELTSLRSGDTAVYYCARSGAPTYYYDSSGFHGGAFHFWGQGTVVTVSS VL: DIVMTQSPDSLAVSLGERATINCKSSQSVLYSSNSKSYLAWYQQKPGQPPKLLIYWASSRESGVPDRFSGSGSGTDFTLTISSLQAEDVAVYYCQQFYTSPHTFGQGTKLEIKR",
    "unit-text": "µg/mL",
    "PRNT IC50": 5.92
  }
]

Now for another entry.
Provide measured PRNT IC50 value, entry: M3E03 (antibody, V domains shown) VH: QVQLVESGGGVVQPGRSLRLSCVASGFPFDSFAMHWVRQAPGKGLEWVAIVWYDGGDKFYSESVKGRFSISRDNSRNTVFLQMNSLRAEDTAVYYCARGMITFDYWGPGTLVTVSS VL: EIVLTQSPGTLSLSPGERATLSCRASQNVDSSYLAWYQQKPGQAPRLLMYGASTRVAGIPDRFSGSGSGTDFTLTISRLEPEDFVVYYCQQYGTSPTWTFGQGTKVEIK 0.0199
